Test system: pcDNA5 (control) stably transfected HEK293 cells
Assay name: MTT cytotoxicity assay, pcDNA5 control cells
Assay type: cell-based, human
Experimental parameters: 72 h, vector control HEK293 cells, mean±SD of six experiments
Measured property: TC50 pcDNA5 (µM)
Could you give me the number in µM? Just the number is fine.

Recorded TC50 pcDNA5 (molecule C[n+]1ccc2c(c1)[nH]c1ccccc12.[I-] [Norharmanium, 2-methyl-9H-β-carboline-2-ium, iodide] ): 119

Recorded TC50 pcDNA5 (molecule C[n+]1ccc(-c2ccccc2)cc1 ): 63.6

Recorded TC50 pcDNA5 (molecule COc1ccc2c3c([nH]c2c1)C(C)=NCC3 ): 23.0

Recorded TC50 pcDNA5 (molecule Cn1c2c(c3ccccc31)CC[N+](C)=C2.[I-] ): 127

Recorded TC50 pcDNA5 (molecule COc1ccc2c(c1)[nH]c1c(C)nccc12 ): 2.87
